Tested on: zebrafish embryos
Assay Procedure: Automated angiogenesis assay (ISV formation), Flk1:copGFP embryos treated at 22-26 hpf, read at 48 hpf
Type: in vivo
Conditions Used: manually quantified; read-out: IC50 T.V. (total number of vessels)
Result Type: IC50 (µM)
Only the number, expressed in µM, is required.

COc1cc2ncnc(Nc3cccc(Cl)c3)c2cc1OC	22.8
COc1cc(OC)cc(-c2cc3cnc(N)nc3nc2NC(=O)NC(C)(C)C)c1	43.9
COc1cc2nccc(Oc3ccc(NC(=S)NC(=O)c4ccccc4C)cc3)c2cc1OC	0.19

Entry O=C1Nc2ccccc2/C1=C1/Nc2ccccc2/C1=N\O , zebrafish embryos data, IC50 value: 18.3

----------
Tested on: zebrafish embryos
Assay Procedure: Automated angiogenesis assay (ISV formation), Flk1:copGFP embryos treated at 22-26 hpf, read at 48 hpf
Type: in vivo
Conditions Used: given when IC50 could not be calculated
Efective concentration (minimum concentration that showed an effect) values by entry
Only the number, expressed in µM, is required.

CCN(CC)CCCCNc1ncc2cc(-c3cc(OC)cc(OC)c3)c(NC(=O)NC(C)(C)C)nc2n1	100

Per the record, COc1cc2c(Nc3ccc(Br)cc3F)ncnc2cc1OCC1CCN(C)CC1 has Efective concentration (minimum concentration that showed an effect) of 100

Per the record, COc1cc2ncc(-c3ccccc3)nc2cc1OC has Efective concentration (minimum concentration that showed an effect) of 20

Per the record, CS(=O)(=O)Nc1ccc([N+](=O)[O-])cc1OC1CCCCC1 has Efective concentration (minimum concentration that showed an effect) of 30

Per the record, COc1cc(Nc2c(C#N)cnc3cc(OCCCN4CCN(C)CC4)c(OC)cc23)c(Cl)cc1Cl has Efective concentration (minimum concentration that showed an effect) of 50

Per the record, Cn1c(=O)n(-c2ccc(C(C)(C)C#N)cc2)c2c3cc(-c4cnc5ccccc5c4)ccc3ncc21 has Efective concentration (minimum concentration that showed an effect) of 10

Values were extracted from paper PMC3352927.
